Test: In vivo localization (biodistribution) in athymic female nude mice bearing subcutaneous MCF-7 tumor xenografts
Design: species or system athymic female NCR-Nu Mice
Settings: mouse, mcf-7 tumor, sc; Tumor, 6 hours, tail vein, subcutaneous MCF-7, mean, n = 5; read-out: Percent Injected Dose/Gram, tumor
measure.name: tissue uptake at 6 h (%ID/g)
Hi! Could you send only the number? It should be in %ID/g, unit omitted.

Quick check: tissue uptake at 6 h of CC[C@H]1C[C@@]2(C)[C@@H](CC[C@@]2(O)/C=C\[125I])[C@@H]2CCc3cc(O)ccc3[C@@H]12 ?
1.1

----------
Assay: In vivo localization (biodistribution) in athymic female nude mice bearing subcutaneous MCF-7 tumor xenografts
Design: species or system athymic female NCR-Nu Mice
Conditions: mouse, sc; Fat, 24 hours, tail vein, subcutaneous MCF-7, mean, n = 5; read-out: Percent Injected Dose/Gram, fat
measure.name: tissue uptake at 24 h (%ID/g)
Hi! Could you send only the number? It should be in %ID/g, unit omitted.

Quick check: tissue uptake at 24 h of CC[C@H]1C[C@@]2(C)[C@@H](CC[C@@]2(O)/C=C\[125I])[C@@H]2CCc3cc(O)ccc3[C@@H]12 ?
0.14

----------
Test: In vivo localization (biodistribution) in athymic female nude mice bearing subcutaneous MCF-7 tumor xenografts
Set-up: species or system athymic female NCR-Nu Mice
Settings: mouse, sc; Spleen, 48 hours, tail vein, subcutaneous MCF-7, mean, n = 5; read-out: Percent Injected Dose/Gram, spleen
measure.name: tissue uptake at 48 h (%ID/g)
Hi! Could you send only the number? It should be in %ID/g, unit omitted.

Quick check: tissue uptake at 48 h of CC[C@H]1C[C@@]2(C)[C@@H](CC[C@@]2(O)/C=C\[125I])[C@@H]2CCc3cc(O)ccc3[C@@H]12 ?
0.06

----------
Experiment: In vivo localization (biodistribution) in athymic female nude mice bearing subcutaneous MCF-7 tumor xenografts
Set-up: species or system athymic female NCR-Nu Mice
Details: mouse, mcf-7 tumor, sc; Tumor, 24 hours, tail vein, subcutaneous MCF-7, mean, n = 5; read-out: Percent Injected Dose/Gram, tumor
measure.name: tissue uptake at 24 h (%ID/g)
Hi! Could you send only the number? It should be in %ID/g, unit omitted.

Quick check: tissue uptake at 24 h of CC[C@H]1C[C@@]2(C)[C@@H](CC[C@@]2(O)/C=C\[125I])[C@@H]2CCc3cc(O)ccc3[C@@H]12 [Compound 5] ?
0.55

----------
Experiment: In vivo localization (biodistribution) in athymic female nude mice bearing intraperitoneal MCF-7 tumors
Parameters: species or system athymic female NCR-Nu Mice
Conditions: mouse, in vivo, ip, Uteri, 24 hours, tail vein, intraperitoneal MCF-7, mean, n = 5; read-out: Percent Injected Dose/Gram, uteri
measure.name: tissue uptake at 24 h (%ID/g)
Hi! Could you send only the number? It should be in %ID/g, unit omitted.

Quick check: tissue uptake at 24 h of CC[C@H]1C[C@@]2(C)[C@@H](CC[C@@]2(O)/C=C\[125I])[C@@H]2CCc3cc(O)ccc3[C@@H]12 [Compound 5] ?
3.35

----------
Experiment: In vivo localization (biodistribution) in athymic female nude mice bearing intraperitoneal MCF-7 tumors
Design: species or system athymic female NCR-Nu Mice
Details: mouse, in vivo, ip, Percent Injected Dose/Gram, spleen
Experimental: In vivo localization of 11β-ethyl-17α-(Z)-[^125 I](iodovinyl)estra-3,17β-diol (5) and a control compound 16α-[^125 I]iodovinyl-3,17β-estradiol (commercially available from DuPont New England Nuclear, MA) was determined in athymic female NCR-Nu Mice (purchased from Simonsen Laboratories, Gilroy, Calif.) bearing subcutaneous MCF-7(ER+) breast tumor xenografts. […]
measure.name: tissue uptake at 24 h (%ID/g)
Hi! Could you send only the number? It should be in %ID/g, unit omitted.

Quick check: tissue uptake at 24 h of CC[C@H]1C[C@@]2(C)[C@@H](CC[C@@]2(O)/C=C\[125I])[C@@H]2CCc3cc(O)ccc3[C@@H]12 [Compound 5] ?
0.16

----------
Experiment: In vivo localization (biodistribution) in athymic female nude mice bearing subcutaneous MCF-7 tumor xenografts
Design: species or system athymic female NCR-Nu Mice
Conditions: mouse, sc; Kidney, 48 hours, tail vein, subcutaneous MCF-7, mean, n = 5; read-out: Percent Injected Dose/Gram, kidney
Protocol: In vivo localization of 11β-ethyl-17α-(Z)-[^125 I](iodovinyl)estra-3,17β-diol (5) and a control compound 16α-[^125 I]iodovinyl-3,17β-estradiol (commercially available from DuPont New England Nuclear, MA) was determined in athymic female NCR-Nu Mice (purchased from Simonsen Laboratories, Gilroy, Calif.) bearing subcutaneous MCF-7(ER+) breast tumor xenografts. […]
measure.name: tissue uptake at 48 h (%ID/g)
Hi! Could you send only the number? It should be in %ID/g, unit omitted.

Quick check: tissue uptake at 48 h of CC[C@H]1C[C@@]2(C)[C@@H](CC[C@@]2(O)/C=C\[125I])[C@@H]2CCc3cc(O)ccc3[C@@H]12 ?
0.02

----------
Test: In vivo localization (biodistribution) in athymic female nude mice bearing subcutaneous MCF-7 tumor xenografts
Parameters: species or system athymic female NCR-Nu Mice
Details: mouse, sc; Fat, 6 hours, tail vein, subcutaneous MCF-7, mean, n = 5; read-out: Percent Injected Dose/Gram, fat
measure.name: tissue uptake at 6 h (%ID/g)
Hi! Could you send only the number? It should be in %ID/g, unit omitted.

Quick check: tissue uptake at 6 h of CC[C@H]1C[C@@]2(C)[C@@H](CC[C@@]2(O)/C=C\[125I])[C@@H]2CCc3cc(O)ccc3[C@@H]12 ?
1.72

----------
Assay: In vivo localization (biodistribution) in athymic female nude mice bearing intraperitoneal MCF-7 tumors
Parameters: species or system athymic female NCR-Nu Mice
Details: mouse, in vivo, ip, Uteri, 2 hours, tail vein, intraperitoneal MCF-7, mean, n = 5; read-out: Percent Injected Dose/Gram, uteri
measure.name: tissue uptake at 2 h

Quick check: tissue uptake at 2 h of CC[C@H]1C[C@@]2(C)[C@@H](CC[C@@]2(O)/C=C\[125I])[C@@H]2CCc3cc(O)ccc3[C@@H]12 [Compound 5] ?
6.47 %ID/g

----------
Experiment: In vivo localization (biodistribution) in athymic female nude mice bearing subcutaneous MCF-7 tumor xenografts
Design: species or system athymic female NCR-Nu Mice
Conditions: mouse, uterus, sc; Uteri, 48 hours, tail vein, subcutaneous MCF-7, mean, n = 5; read-out: Percent Injected Dose/Gram, uteri
measure.name: tissue uptake at 48 h (%ID/g)
Hi! Could you send only the number? It should be in %ID/g, unit omitted.

Quick check: tissue uptake at 48 h of CC[C@H]1C[C@@]2(C)[C@@H](CC[C@@]2(O)/C=C\[125I])[C@@H]2CCc3cc(O)ccc3[C@@H]12 [Compound 5] ?
1.26

----------
Assay: In vivo localization (biodistribution) in athymic female nude mice bearing intraperitoneal MCF-7 tumors
Set-up: species or system athymic female NCR-Nu Mice
Details: mouse, in vivo, ip, Percent Injected Dose/Gram, tumor
measure.name: tissue uptake at 24 h
Answer format: value, then unit.

Quick check: tissue uptake at 24 h of CC[C@H]1C[C@@]2(C)[C@@H](CC[C@@]2(O)/C=C\[125I])[C@@H]2CCc3cc(O)ccc3[C@@H]12 ?
1.07 %ID/g

----------
Experiment: In vivo localization (biodistribution) in athymic female nude mice bearing subcutaneous MCF-7 tumor xenografts
Set-up: species or system athymic female NCR-Nu Mice
Conditions: mouse, uterus, sc; Uteri, 24 hours, tail vein, subcutaneous MCF-7, mean, n = 5; read-out: Percent Injected Dose/Gram, uteri
measure.name: tissue uptake at 24 h (%ID/g)
Hi! Could you send only the number? It should be in %ID/g, unit omitted.

Quick check: tissue uptake at 24 h of CC[C@H]1C[C@@]2(C)[C@@H](CC[C@@]2(O)/C=C\[125I])[C@@H]2CCc3cc(O)ccc3[C@@H]12 [Compound 5] ?
1.95

----------
Experiment: In vivo localization (biodistribution) in athymic female nude mice bearing intraperitoneal MCF-7 tumors
Set-up: species or system athymic female NCR-Nu Mice
Details: mouse, in vivo, ip, Percent Injected Dose/Gram, muscle
measure.name: tissue uptake at 2 h (%ID/g)
Hi! Could you send only the number? It should be in %ID/g, unit omitted.

Quick check: tissue uptake at 2 h of CC[C@H]1C[C@@]2(C)[C@@H](CC[C@@]2(O)/C=C\[125I])[C@@H]2CCc3cc(O)ccc3[C@@H]12 ?
0.69

----------
Assay: In vivo localization (biodistribution) in athymic female nude mice bearing intraperitoneal MCF-7 tumors
Set-up: species or system athymic female NCR-Nu Mice
Details: mouse, in vivo, ip, Percent Injected Dose/Gram, kidney
measure.name: tissue uptake at 2 h
Answer format: value, then unit.

Quick check: tissue uptake at 2 h of CC[C@H]1C[C@@]2(C)[C@@H](CC[C@@]2(O)/C=C\[125I])[C@@H]2CCc3cc(O)ccc3[C@@H]12 [Compound 5] ?
2.08 %ID/g
